Value source: patent US9840509B2

The following molecules are listed with their measured inhibition at 10 μM values.
# tgt: CYP 3A4 (Homo sapiens, UniProt P08684)
# Construct: from tissue; host or cells: human liver microsomes
# Sequence (P08684 whole entry): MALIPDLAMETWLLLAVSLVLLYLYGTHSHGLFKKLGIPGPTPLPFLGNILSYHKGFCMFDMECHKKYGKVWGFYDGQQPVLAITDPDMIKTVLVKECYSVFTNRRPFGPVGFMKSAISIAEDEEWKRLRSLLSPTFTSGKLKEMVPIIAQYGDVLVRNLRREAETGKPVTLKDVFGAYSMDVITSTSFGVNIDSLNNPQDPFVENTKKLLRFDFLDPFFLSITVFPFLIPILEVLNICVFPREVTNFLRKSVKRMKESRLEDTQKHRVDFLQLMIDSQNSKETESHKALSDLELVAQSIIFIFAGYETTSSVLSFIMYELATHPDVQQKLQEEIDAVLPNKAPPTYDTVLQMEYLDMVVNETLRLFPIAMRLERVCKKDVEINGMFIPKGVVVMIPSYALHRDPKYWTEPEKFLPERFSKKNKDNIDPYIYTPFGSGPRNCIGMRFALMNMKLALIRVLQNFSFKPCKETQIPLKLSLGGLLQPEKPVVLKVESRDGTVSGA
# assay remarks: CYP inhibition in human liver microsomes, 3A4
# Assay type: in vitro ADME
# experimental setup: pH 7.4, @ 10 μM concn
measured property: inhibition at 10 μM

> print(dat)
                                    molecule    measured.property  observed.result
 1  C=CS(=O)(=O)N1CC2CC(n3nc(-c4ccc(Oc5ccccc5)cc4)c4c(N)ncnc43)CC2C1 (stereo not drawn) [Compound 18]  inhibition at 10 μM            > 50%
 2  C=CC(=O)N1CC2CC(n3nc(-c4ccc5ncsc5c4)c4c(N)ncnc43)CC2C1 (stereo not drawn) [Compound 2]  inhibition at 10 μM            < 50%
 3  Cc1ccnc(NC(=O)c2ccc(-c3nn(C4CC5CN(C(=O)/C=C/CN(C)C)CC5C4)c4ncnc(N)c34)cc2)c1 (stereo not drawn) [Compound 45]  inhibition at 10 μM            < 50%
 4  C=CC(=O)N1CC2CC(n3nc(-c4ccc(C(=O)Nc5cc(C)ccn5)c(OC)c4)c4c(N)ncnc43)CC2C1 (stereo not drawn) [Compound 29]  inhibition at 10 μM            < 50%
 5  CN(C)C/C=C/C(=O)N1CC2CC(n3nc(-c4ccc(Oc5cccnc5)cc4)c4c(N)ncnc43)CC2C1 (stereo not drawn) [Compound 53]  inhibition at 10 μM            > 50%
 6  C=CC(=O)N1CC2CC(n3nc(-c4ccc5nc(OC)sc5c4)c4c(N)ncnc43)CC2C1 (stereo not drawn) [Compound 10]  inhibition at 10 μM            > 50%
 7  C=CC(=O)N1CC2CC(n3nc(-c4ccc5oc(-c6ccccc6)nc5c4)c4c(N)ncnc43)CC2C1 (stereo not drawn) [Compound 23]  inhibition at 10 μM            > 50%
 8  C=CC(=O)N1CC2CC(n3nc(-c4ccc5c(c4)OCO5)c4c(N)ncnc43)CC2C1 (stereo not drawn) [Compound 15]  inhibition at 10 μM            > 50%
 9  CN(C)C/C=C/C(=O)N1CC2CC(n3nc(-c4ccc(Oc5ccccn5)cc4)c4c(N)ncnc43)CC2C1 (stereo not drawn) [Compound 47]  inhibition at 10 μM            < 50%
10  CN(C)C/C=C/C(=O)N1CC2CC(n3nc(-c4ccc(C(=O)Nc5cnccn5)cc4)c4c(N)ncnc43)CC2C1 (stereo not drawn) [Compound 49]  inhibition at 10 μM            < 50%
11  C=CC(=O)N1CC2CC(n3nc(-c4ccc5nc(Oc6ccccc6)sc5c4)c4c(N)ncnc43)CC2C1 (stereo not drawn) [Compound 20]  inhibition at 10 μM            > 50%
12  N#C/C(=C\C1CC1)C(=O)N1CC2CC(n3nc(-c4ccc(Oc5ccccc5)cc4)c4c(N)ncnc43)CC2C1 (stereo not drawn) [Compound 28]  inhibition at 10 μM            > 50%
13  C=CC(=O)N1CC2CC(n3nc(-c4ccc(C(=O)N(C)c5cc(C)ccn5)cc4)c4c(N)ncnc43)CC2C1 (stereo not drawn) [Compound 54]  inhibition at 10 μM            < 50%
14  C=CC(=O)N1CC2CC(n3nc(-c4ccc(C(=O)Nc5cc(C)ccn5)cn4)c4c(N)ncnc43)CC2C1 (stereo not drawn) [Compound 42]  inhibition at 10 μM            < 50%
15  CN(C)C/C=C/C(=O)N1CC2CC(n3nc(-c4ccc(C(=O)Nc5ccccn5)cc4)c4c(N)ncnc43)CC2C1 (stereo not drawn) [Compound 44]  inhibition at 10 μM            < 50%
